# System: RAW264.7
# assay-explanation: Cytotoxicity against LPS-induced mouse RAW264.7 cells assessed as reduction in cell viability at 30 uM pretreated for 1 hr followed by LPS addition and measured after 24 hrs by MTT assay
# Type: toxicity, cell-based
# reported-conditions: raw264.7, 25 h
reported-property: Activity

compound: CCCCCCCCCCCCCCCC/C=C(/OC(=O)C(C)c1ccc(CC(C)C)cc1)C(F)(F)F (stereo not given)
system-tested: RAW264.7
observed-value: Non-Toxic
//
compound: CCCCCCCCCCCC/C=C(/OC(=O)[C@@H](C)c1ccc2cc(OC)ccc2c1)C(F)(F)F
system-tested: RAW264.7
observed-value: Non-Toxic
//
compound: CCCCCC/C=C(/OC(=O)c1ccccc1OC(C)=O)C(F)(F)F
system-tested: RAW264.7
observed-value: Non-Toxic
//
compound: CCCCCCC/C=C(/OC(=O)C(C)c1ccc(-c2ccccc2)c(F)c1)C(F)(F)F (stereo not given)
system-tested: RAW264.7
observed-value: Non-Toxic

Query compound follows.
# Activity lookup, item CCCCCCCCCCCCC/C=C(/OC(=O)C(C)c1ccc(CC(C)C)cc1)C(F)(F)F (stereo not given) Non-Toxic
